Hey, just so you know, these numbers are from PubChem BioAssay.

System: glycogen synthase kinase-3 (GSK3A per assay name; protocol says GSK3B)
protocol_text: GSK3 binders on small-molecule microarrays, primary screen, biochemical, small-molecule microarray, 635 nm fluorescence, GSK3A (AID 1103); note: the record names both GSK3A and GSK3B
experimental_setup: small-molecule microarray binding, fluorescence 635 nm; higher = more signal
test_readout: composite z-score
One number for each entry.

Sample records with composite z-score:
smiles_str: COCCOC(=O)N1C(=O)[C@@]2(c3cc(C#CCCO)ccc31)[C@H](c1ccccc1OCCO)N1[C@H](c3ccccc3)[C@H](c3ccccc3)OC(=O)[C@H]1[C@@H]2C(=O)NC[C@H](O)c1ccccc1
test_readout: composite z-score
recorded_value: 1.22
//
smiles_str: CC(C)N1C(=O)c2ccccc2[C@@H](C(=O)NCc2ccccc2)[C@@H]1c1ccc(CO)cc1
test_readout: composite z-score
recorded_value: 0.192
//
smiles_str: C=C(/C(=C/C[C@H](OC(C)=O)c1cccc(OCCO)c1)c1cc(C(=O)OC)ccc1OC)C(C)C
test_readout: composite z-score
recorded_value: -0.116

glycogen synthase kinase-3 (GSK3A per assay name; protocol says GSK3B) data for Cc1ccc(S[C@]2(C(=O)NC3CC3)CC(=O)N(Cc3ccccc3C(F)(F)F)[C@@H]2c2ccc(CO)cc2I)cc1 ; its composite z-score: -0.0828
